The reported measurements were obtained from PubChem BioAssay.

assay.remarks: modulators of AGP1-GFP expression in yeast TOR pathway, primary screen, cell-based, multiplex flow cytometry, S. cerevisiae (AID 1887);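 note: AGP1-GFP fusion strain of S. cerevisiae within a five-strain barcoded multiplex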
measurement.setup: 3 h, at 10 µM, stronger effect = higher value
Results filed as inconclusive are left out. Activity calls are given as the source filed them.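 Rule for the calls: active = GFP signal above the screen-wide mean plus 3 SD, that is over about 124.5% of the solvent control; inconclusive = no reading because the compound's own fluorescence disturbed strain identification; inactive = the rest.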
measured.parameter: GFP response, % of DMSO

Consider the reported GFP response, % of DMSO for these compounds:
INSERT INTO assay_data (compound, obs_value) VALUES
  ('CCn1cc(C(=O)O)c(=O)c2cnc(N3CCNCC3)nc21', '99.7% (inactive)'),
  ('CN1CCC(=C2c3ccccc3CC(=O)c3sccc32)CC1', '101% (inactive)'),
  ('CN(C)c1ccc(O)c2c1CC1CC3[C@@H](N(C)C)C(=O)C(C(N)=O)=C(O)[C@]3(O)C(=O)C1=C2O (stereo not given in full)', '93% (inactive)'),
  ('CC(=O)OCC(=O)[C@@]12OC(C)(C)O[C@@H]1C[C@H]1[C@@H]3C[C@H](F)C4=CC(=O)C=C[C@]4(C)[C@@]3(F)[C@@H](O)C[C@@]12C', '105% (inactive)'),
  ('O=C(/C=C/c1ccco1)N1CCN(c2ccccc2)CC1', '92.7% (inactive)');

Q: // returns reported GFP response, % of DMSO for input CCOC(=O)c1ccc2[nH]c(C)c(CCC(C)=O)c(=O)c2c1
Ans: 97.9% (inactive)

Q: Would you kindly share the measured GFP response, % of DMSO for O=C(COc1ccccc1)N1CCN(c2ccccc2)CC1 ?
Ans: 97.8% (inactive)

Q: Suppose we examine the compound COc1ccc(CC(=O)c2c(O)cc(O)cc2O)cc1OC ; what GFP response, % of DMSO value has been reported?
Ans: 97.5% (inactive)

Q: Need GFP response, % of DMSO of Cc1ccccc1C(OCCN(C)C)c1ccccc1 (stereo not given) , thanks.
Ans: 94.6% (inactive)

Q: Need GFP response, % of DMSO, item c1ccc2c(c1)CCCC2C1=NCCN1 (stereo not given)
Ans: 110% (inactive)
